- targetOfAssay: Pro-neuregulin-1, membrane-bound isoform (Homo sapiens) (UniProt Q02297)
- Sequence (Q02297 whole entry, looked up, canonical isoform): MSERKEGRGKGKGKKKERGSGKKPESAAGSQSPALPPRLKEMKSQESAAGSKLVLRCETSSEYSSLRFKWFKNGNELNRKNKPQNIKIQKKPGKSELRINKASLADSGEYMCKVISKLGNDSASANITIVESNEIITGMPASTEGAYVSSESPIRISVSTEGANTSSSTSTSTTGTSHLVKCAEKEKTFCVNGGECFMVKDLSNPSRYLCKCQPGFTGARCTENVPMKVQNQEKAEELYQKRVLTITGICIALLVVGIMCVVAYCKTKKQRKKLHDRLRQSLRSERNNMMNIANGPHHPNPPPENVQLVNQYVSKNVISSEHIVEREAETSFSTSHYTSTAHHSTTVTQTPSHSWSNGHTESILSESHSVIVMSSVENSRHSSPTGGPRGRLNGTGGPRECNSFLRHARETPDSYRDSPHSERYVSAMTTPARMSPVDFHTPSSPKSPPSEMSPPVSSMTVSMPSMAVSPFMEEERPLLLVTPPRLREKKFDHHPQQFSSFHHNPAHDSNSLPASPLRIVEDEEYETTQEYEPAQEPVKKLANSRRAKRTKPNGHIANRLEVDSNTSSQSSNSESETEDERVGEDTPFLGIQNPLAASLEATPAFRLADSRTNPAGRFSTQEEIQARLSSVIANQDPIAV
- assayExplanation: NRG1 binders on small-molecule microarrays, primary screen, psychiatric disease protein project, biochemical, small-molecule microarray, fluorescence 635/667 (AID 1075);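 also: score combines 667 nm spot fluorescence with signal to noise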
- conditionNotes: NRG1 binding, 635 nm fluorescence, higher = more signal
composite z-score for assorted compounds

Solved entries:
C[C@]1(C(=O)NCC(F)(F)F)c2ccccc2C(=O)N(Cc2ccc(OC(F)(F)F)cc2)[C@H]1c1ccc(CO)cc1 | 0.0763
[N-]=[N+]=Nc1ccccc1[C@@H]1OC(c2ccc(OCCCO)cc2)=N[C@]1(Cc1ccccc1)C(N)=O | 1.17
[N-]=[N+]=NCc1ccccc1C[C@@]1(C(=O)O)N=C(c2ccc(OCCCO)cc2)O[C@@H]1c1ccccc1CN=[N+]=[N-] | 1.1
C#CCN([C@H](/C=C/C1CC1)[C@@H](O)Cc1ccccc1)[C@@H](Cc1ccccc1)C(=O)OC | -0.458

Entry `COCCCNC(=O)[C@@]1(Sc2ccc(C)cc2)CC(=O)N(C2CCCCC2)[C@@H]1c1ccc(CO)cc1I` , tested on Pro-neuregulin-1, membrane-bound isoform (Homo sapiens) (UniProt Q02297), has a reported composite z-score of 1.56

Param item: `COCC(=C=CC[C@@H](O)c1ccc(OCCO)cc1)C[C@@H](O)COCc1ccccc1` ; param system: Pro-neuregulin-1, membrane-bound isoform (Homo sapiens) (UniProt Q02297); output composite z-score: 1.11

Response field composite z-score (Pro-neuregulin-1, membrane-bound isoform (Homo sapiens) (UniProt Q02297)) for item `COc1cccc(OC)c1C(=O)O[C@H]1[C@@H]2OC(=O)[C@H](Cc3cccc(Br)c3)C/C=C/C[C@@H](Cc3cccc(Br)c3)C(=O)O[C@H]2[C@@H](OC)O[C@@H]1CO` : 1.28

composite z-score value, target or system Pro-neuregulin-1, membrane-bound isoform (Homo sapiens) (UniProt Q02297), for `CCCC[C@@H]1C[C@H]1[C@@H](NC(=O)c1ccc(C(F)(F)F)cc1)c1ccc(C(=O)OC)cc1` : 0.311

* * *

- assayExplanation: small-molecule microarray binders of probe aDKK1, primary screen, biochemical, biotinylated probe, 635/667 nm fluorescence (AID 1099);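 also: score merges 667nm spot fluorescence with signal to noise across triplicate slides; reference of the scale not given here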
- conditionNotes: higher = more signal
Threshold rule: composite z-score greater than or equal to 0.08 is true; below that, false.

Some entries whose results are on file:
COC(=O)[C@@]1(Cc2ccc(OC)cc2)[C@@H]2[C@@H](CC(=O)[C@H]2CC(=O)C(=O)N2CCCC2)CN1C(=O)c1ccccc1 | true
CC(C)C(=C=CC[C@@H](O)c1ccc(OCCO)cc1)CCO | false
C=CC[C@@]1(C(=O)N(C)C)N=C(c2ccc(OCCCO)cc2)O[C@@H]1c1ccccc1 | true
C=C(C(=O)CC[C@@H](OC(C)=O)c1cccc(OCCO)c1)C(C)C | false
C[N+](C)(C)CCCCCCNC(=O)[C@@H]1C[C@@H]2C(=O)N[C@@H](Cc3ccccc3)C(=O)N2[C@@H]1c1ccc(O)cc1 | false

Task: Hi team, for CC1CC/C=C\[C@H]2OC34C=CCN(c5ccc(Cl)cc5)C(=O)[C@H]3N(CCCO)C(=O)[C@]4(C)C2C(=O)O1 (some centres not stated) , is the recorded composite z-score at or above 0.08?
Output: false

Task: Could you please find out whether COc1ccc(C(O)C2C=CC3C(=O)N(C)C(=O)C3N2Nc2ccc([N+](=O)[O-])cc2[N+](=O)[O-])cc1OCc1ccccc1 (configuration not stated) has composite z-score that meets 0.08 or exceeds it?
Output: true

Task: Has `CCOC(=O)C1=CC[C@@H](c2ccccc2)N(S(=O)(=O)c2ccc(C)cc2)[C@H]1C#N` a recorded composite z-score greater than or equal to 0.08?
Output: true

Task: For this compound, is measured composite z-score 0.08 or higher? `C=CCN1C(=O)[C@]2(O[C@H](CCO)[C@@H]([Si](C)(C)c3ccc(OC)cc3)[C@@H]2C)c2ccccc21`
Output: false

Task: Hi team, for `COc1ccc([Si](C)(C)[C@H]2[C@H](CCO)O[C@@]3(C(=O)N(Cc4ccc(N5CCOC5=O)cc4)c4ccccc43)[C@@H]2C)cc1` , is the recorded composite z-score at or above 0.08?
Output: false

Task: Reported composite z-score at or above 0.08? `CN(C)CCCNC(=O)[C@@H]1c2ccccc2C(=O)N(C2Cc3ccccc3C2)[C@H]1c1ccc(CO)cc1`
Output: true

Task: # bool: composite z-score of `CCC[C@@H]1C=C(C(=O)OCC)[C@H](c2ccccc2)N1S(=O)(=O)c1ccc(C)cc1` >= 0.08
Output: true

Task: Assess whether reported composite z-score for CC(C)c1ccc(NN2C(C(O)C(C)C)C=CC3C(=O)N(c4ccccc4)C(=O)C32)cc1 (configuration not stated) sits at 0.08 or higher.
Output: true

Task: # check: composite z-score of CCCCN1CC=CC23O[C@@H]4C=CCOC(=O)[C@@H]4[C@H]2C(=O)N(C(CO)C(C)C)[C@@H]3C1=O (some centres not stated) is greater than or equal to 0.08
Output: false

Task: Tell me whether composite z-score is at least 0.08 here: CC1CC/C=C\[C@H]2OC34C=CCN(CCN5CCOCC5)C(=O)[C@H]3N(CCCCCCO)C(=O)[C@@H]4C2C(=O)O1 (some centres not stated)
Output: false

Task: Quick check: does C=CCC(OC(C)=O)[C@@H]1[C@@H](N(Cc2ccc(-c3ccccc3)cc2)C(=O)c2ccc(C)cc2)c2cc(OCCCO)ccc2N1C(=O)c1ccc2ccccc2c1 (some centres not stated) have composite z-score greater than or equal to 0.08?
Output: false

Task: Does C=CC(CO)NC(=O)OCC1c2ccccc2-c2ccccc21 (configuration not stated) have a reported composite z-score of at least 0.08?
Output: false

Task: State whether the measured composite z-score reaches 0.08, counting equality as reaching it, for `COCCOC(=O)N1C(=O)[C@@]2(c3ccccc31)[C@H](C(N)=O)[C@H]1C(=O)O[C@H](c3ccccc3)[C@H](c3ccccc3)N1[C@@H]2c1ccc(OCCO)cc1`
Output: false

Task: Is the recorded value of composite z-score equal to or greater than 0.08 for this compound? `CC(C)(C)OC(=O)CC[C@]1(C(=O)N2CCOCC2)N=C(c2ccc(OCCCO)cc2)O[C@H]1c1ccccc1CN=[N+]=[N-]`
Output: true

Task: API: above_or_equal(metric=composite z-score, cutoff=0.08) for item `COc1ccccc1CN1C(=O)c2ccccc2[C@@H](C(=O)NCCCN(C)C)[C@@H]1c1ccc(CO)cc1`
Output: true

Task: In plain terms: is recorded composite z-score at least 0.08 for `COCCOC(=O)N1C(=O)[C@@]2(c3ccccc31)[C@H](C(=O)N1CCCCCCC1)[C@H]1C(=O)O[C@H](c3ccccc3)[C@H](c3ccccc3)N1[C@@H]2c1ccc(O)cc1` ?
Output: true

Task: Can `O=C1O[C@H](c2ccccc2)[C@H](c2ccccc2)N2[C@H]1[C@@H](C(=O)N1CCN(c3ncccn3)CC1)[C@]1(C(=O)Nc3ccccc31)[C@H]2c1ccc(O)cc1` be said to have composite z-score at or above 0.08?
Output: true

Task: Determine whether this compound has composite z-score no lower than 0.08: `CN(C)C(=O)[C@]1(Cc2ccccc2)N=C(c2ccc(OCCCO)cc2)O[C@@H]1c1ccccc1`
Output: true

Task: // inclusive: composite z-score at least 0.08? input: `COCCOC(=O)N1C(=O)[C@@]2(c3cc(C#CC4(O)CCCCCC4)ccc31)[C@H](C(=O)NC[C@H](O)c1ccccc1)[C@H]1C(=O)O[C@H](c3ccccc3)[C@H](c3ccccc3)N1[C@@H]2c1ccc(O)cc1`
Output: true

Task: Form field: composite z-score at least 0.08? Entry: `CC(C)CNC(=O)[C@@H]1c2ccccc2C(=O)N(Cc2ccccc2Cl)[C@H]1c1ccc(CO)cc1`
Output: true

Task: Assess whether reported composite z-score for `CN1C(=O)[C@]2(CCS(=O)(=O)c3ccccc3)N=C(c3ccc(OCCCO)cc3)O[C@@H]2c2ccccc21` sits at 0.08 or higher.
Output: true
